tested on: OXPHOS gene expression; assay type: cell-based, mouse; conditions: composite Z-score vs DMSO; Conc 20 μM
Readout Name: GE-HTS
Answers are plain numbers.

Give GE-HTS for each of the items listed below.
1. CC1(O)CC2C(CC1O)C2(C)C (stereo not drawn) [3,4-dihydroxycarane]
2. COc1ccc(-c2c(O)c3c(OC)c4c(cc3oc2=O)OC(C)(C)CC4)cc1 [dihydrorobustic acid, reference compound]
3. CCN1CCN(C(=O)N[C@@H](C(=O)N[C@@H]2C(=O)N3[C@@H]2SC(C)(C)[C@@H]3C(=O)O)c2ccccc2)C(=O)C1=O [piperacillin]
4. CC1(C)O[C@H]2CC(=O)OC[C@]23[C@H]2CC[C@@]4(C)[C@H](c5ccoc5)OC(=O)[C@H]5O[C@]54[C@]2(C)C(=O)C[C@@H]13 [limonin]
5. CCOc1nc2cccc(C(=O)OC(C)OC(=O)OC3CCCCC3)c2n1Cc1ccc(-c2ccccc2-c2nn[nH]n2)cc1 (stereo not drawn) [candesartan cilextil]
6. C[C@H]1O[C@@H](n2cc(F)c(=O)[nH]c2=O)[C@H](O)[C@@H]1O [5-fluoro-5′-deoxyuridine]

1. −1.265
2. −0.836
3. −0.548
4. −0.197
5. −0.432
6. −0.336

----------
Please respond with reported Viability for every item in the list.
system: C2C12 myotubes; conditions: composite Z-score vs mock-treated (DMSO) wells; Conc 20 μM
Give bare numbers.

- Molecule: "CC(C)c1c(O)ccc2c1CCC1[C@@](C)(C=O)CCC[C@]21C (some centres unmarked) [totaralolal]"
  System: "C2C12 myotubes"
  Viability: 0.591
- Molecule: "COc1cc2c(cc1OC)[C@@H]1C(=O)c3ccc(O)c(CC=C(C)C)c3O[C@@H]1CO2 [rotenonic acid, reference compound]"
  System: "C2C12 myotubes"
  Viability: 0.206
- Molecule: "CC(C)=CCc1c(O)cc(C)oc1=O [2-isoprenyl-3-hydroxy-5-methyl-a-pyrone]"
  System: "C2C12 myotubes"
  Viability: "−1.025"

Give Viability for each of the items listed below.
1. COc1cc2ccc(=O)oc2c2ccoc12 [sphondin]
2. COc1ccc(-c2coc3cc(O)ccc3c2=O)c(OC)c1 [2′-methoxyformonetin]

["−0.790", 0.477]

----------
test system: mitochondrial membrane potential; format: cell-based, mouse; conditions: composite Z-score vs DMSO; Conc 20 μM
Please respond with reported ΔΨm for every item in the list.
Answers are plain numbers.

Answered cases to consult:
- Molecule: "COc1cc(O)c(C(=O)/C=C/c2ccccc2)c(OC)c1"
  System: "mitochondrial membrane potential"
  Readout Name: "ΔΨm"
  Numeric Result: "−0.302"
- Molecule: "COc1cc2c(cc1OC)[C@@H]1C(=O)c3c(O)cc4c(c3O[C@@H]1CO2)C=CC(C)(C)O4 [alpha-toxicarol, reference compound]"
  System: "mitochondrial membrane potential"
  Readout Name: "ΔΨm"
  Numeric Result: 0.820
- Molecule: "COc1ccc2c(c1)OCc1c-2oc2cc(OC)ccc12 [dehydrovariabilin]"
  System: "mitochondrial membrane potential"
  Readout Name: "ΔΨm"
  Numeric Result: 0.951
- Molecule: "Cc1cc(O)c(C=O)c(O)c1C(=O)O"
  System: "mitochondrial membrane potential"
  Readout Name: "ΔΨm"
  Numeric Result: 0.002
- Molecule: "C[C@H](CCC(=O)O)[C@H]1CC[C@H]2[C@@H]3CC[C@@H]4CCCC[C@]4(C)[C@H]3CC[C@]12C"
  System: "mitochondrial membrane potential"
  Readout Name: "ΔΨm"
  Numeric Result: "−1.738"
- Molecule: "O=C1CC[C@]23/C=C/C(=O)NCCCCNCCCNC(=O)/C=C/c4ccc(c2c4)O[C@@H]3C1"
  System: "mitochondrial membrane potential"
  Readout Name: "ΔΨm"
  Numeric Result: "−0.795"
- Molecule: "CCCCCC1C(=O)CCC1CC(=O)OC (stereo not drawn) [dihydrojasmonic acid, methyl ester]"
  System: "mitochondrial membrane potential"
  Readout Name: "ΔΨm"
  Numeric Result: "−0.204"
- Molecule: "CC(=O)O[C@H]1CC[C@@]2(C)[C@H](CC[C@@H]3[C@@H]2CC[C@]2(C)[C@@H](C4=CC(=O)OC4)[C@@H](OC(C)=O)C[C@]32O)C1 [gitoxigenin diacetate]"
  System: "mitochondrial membrane potential"
  Readout Name: "ΔΨm"
  Numeric Result: "−0.792"
- Molecule: "COc1cc(-c2coc3cc(OCc4ccccc4)c(OC)c(O)c3c2=O)cc(OCc2ccccc2)c1OC"
  System: "mitochondrial membrane potential"
  Readout Name: "ΔΨm"
  Numeric Result: 0.178
- Molecule: "COc1cc(O)c2c(=O)cc(-c3ccc(OC)c(-c4c(O)cc(O)c5c(=O)cc(-c6ccc(O)cc6)oc45)c3)oc2c1"
  System: "mitochondrial membrane potential"
  Readout Name: "ΔΨm"
  Numeric Result: "−4.324"

Give ΔΨm for each of the items listed below.
1. CC1(C)[C@@H](O[C@H]2O[C@H](C(=O)O)[C@@H](O)[C@H](O)[C@H]2O[C@@H]2O[C@H](C(=O)O)[C@@H](O)[C@H](O)[C@H]2O)CC[C@]2(C)[C@H]3C(=O)C=C4[C@@H]5C[C@@](C)(C(=O)O)CC[C@]5(C)CC[C@@]4(C)[C@]3(C)CC[C@@H]12
2. CC1=C(CCC(=O)O)c2cc3[nH]c(cc4nc(cc5[nH]c(cc1n2)c(C)c5C(C)O)C(C)=C4C(C)O)c(C)c3CCC(=O)O (stereo not drawn)

["−0.606", "−3.662"]

The measurements presented in this section are drawn from patent US20090143279A1.
